Numbers sourced from patent US20230158025A1.

Documented Metab. Stabil. (m) across a set of molecules
# experiment_summary: rat microsomal stability (RLM)
# settings: microsomal stability half-life
Number in m, nothing else.

COC(=O)c1ccnc(NC(=O)C2=C(C)NC(Nc3nc4ccccc4o3)=N[C@H]2c2ccccc2Cl)c1 [Compound 206]; 19.99
CC1=C(C(=O)Nc2ccc(CN)cc2)C(c2ccccc2Cl)N=C(Nc2nc3ccccc3o2)N1 (stereo not shown) [Compound 169]; 72.47
CC1=C(C(=O)Nc2ccc(N(C)C)cc2)C(c2ccccc2Cl)N=C(Nc2nc3ccccc3o2)N1 (stereo not shown) [Compound 152]; 11.45

### Prompt Data request, read-out Metab. Stabil. (m), for COC(=O)c1ccnc(NC(=O)C2=C(C)NC(Nc3nc4ccccc4o3)=NC2c2ccccc2Cl)c1 (stereo not shown) [Compound 196]
### Response 18.44
